substances and their reported MIC K. pneumoniae
# System: Klebsiella pneumoniae (ATCC 43816)
# Assay type: cell-based
Where no end group is shown, it is not given here.
// return numeric value only (unit: µM, not printed)

Known results for substances:
| SUBSTANCE | REPORTED |
| --- | --- |
| GFSSLFKAGAKYLRKQVGKAGAQQL-NH2 [[R^14]BR2GK(1-25)a] | 128 |
| GFSSLFKAGAKYLLKQVGKAGAQQL-NH2 [BR2GK(1-25)a] | 16 |
| GFSSLFKAGAKYLKKQVGKAGAQQL-NH2 [[K^14]BR2GK(1-25)a] | 128 |

GET /values?readout=MIC K. pneumoniae&item= GFSSLFKAGAKYLAKQVGKAGAQQL-NH2 [[A^14]BR2GK(1-25)a] 128

----------
substances and their reported MBC E. coli
# System: Escherichia coli (NCTC 10418)
# Type: cell-based
Where no end group is shown, it is not given here.

| SUBSTANCE | REPORTED |
| --- | --- |
| GFSSLFKAGAKYLPKQVGKAGAQQL-NH2 [[P^14]BR2GK(1-25)a] | > 512 µM |
| GFSSLFKAGAKYLLKQVGKAGAQQL-NH2 [BR2GK(1-25)a] | 8 µM |
| GFSSLFKAGAKYLKKQVGKAGAQQL-NH2 [[K^14]BR2GK(1-25)a] | 32 µM |
| GFSSLFKAGAKYLAKQVGKAGAQQL-NH2 [[A^14]BR2GK(1-25)a] | 32 µM |

// below: MBC E. coli requested for another substance
GET /values?readout=MBC E. coli&item= GFSSLFKAGAKYLRKQVGKAGAQQL-NH2 [[R^14]BR2GK(1-25)a] 16 µM

----------
# Tested on: Staphylococcus aureus (NCTC 10788)
# Format: cell-based
Where no end group is shown, it is not given here.
EXPERIMENTAL_READOUT: MIC S. aureus (µM)
// return numeric value only (unit: µM, not printed)

Known results for substances:
| SUBSTANCE | REPORTED |
| --- | --- |
| GFSSLFKAGAKYLKKQVGKAGAQQL-NH2 [[K^14]BR2GK(1-25)a] | 16 |
| GFSSLFKAGAKYLPKQVGKAGAQQL-NH2 [[P^14]BR2GK(1-25)a] | 512 |
| GFSSLFKAGAKYLAKQVGKAGAQQL-NH2 [[A^14]BR2GK(1-25)a] | 8 |
| GFSSLFKAGAKYLLKQVGKAGAQQL-NH2 [BR2GK(1-25)a] | 4 |

// below: MIC S. aureus requested for another substance
GET /values?readout=MIC S. aureus&item= GFSSLFKAGAKYLRKQVGKAGAQQL-NH2 [[R^14]BR2GK(1-25)a] 16

----------
substances and their reported MIC C. albicans
# System: Candida albicans (NCYC 1467)
# Type: cell-based
Where no end group is shown, it is not given here.
// return numeric value only (unit: µM, not printed)

Known results for substances:
| SUBSTANCE | EXPERIMENTAL_READOUT | MEASUREMENT_UNITS | REPORTED |
| --- | --- | --- | --- |
| GFSSLFKAGAKYLAKQVGKAGAQQL-NH2 [[A^14]BR2GK(1-25)a] | MIC C. albicans | µM | 16 |
| GFSSLFKAGAKYLRKQVGKAGAQQL-NH2 [[R^14]BR2GK(1-25)a] | MIC C. albicans | µM | 64 |
| GFSSLFKAGAKYLLKQVGKAGAQQL-NH2 [BR2GK(1-25)a] | MIC C. albicans | µM | 4 |

GET /values?readout=MIC C. albicans&item= GFSSLFKAGAKYLKKQVGKAGAQQL-NH2 [[K^14]BR2GK(1-25)a] 64

Source listed as paper PMC7168151.
